assay: chemical genetic growth profiling, strain panel (AID 1159580);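 also: tested at 20 µM; growth read once vehicle control cultures reached saturation at 30 °C; 1 = growth at the plate median or of vehicle wells; lower values mean less growth of the strain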; settings: S. cerevisiae deletion strains, growth OD, locus YJL095W, strain BCK1 (second series)
Hit rate of the full screen: of about 5,500 compounds, about 2,000 (36%) were called active. Inconclusive results (about 18%) are left out. Rule as the data show it: active = normalized growth mostly below about 0.91 (no sharp cut-off); inconclusive = no clear call, values can overlap the other calls; inactive = mostly above about 0.92. The list shows a part of the results.
Outcomes you can answer with include only these: active, inactive

Solved entries:
Nc1ccc(S(=O)(=O)c2ccc(N)cc2)cc1; inactive
NC12CC3CC(CC(C3)C1)C2; inactive
CC(C)CCCC1(C)C=Cc2c(O)c3c(c(CCC(C)C)c2O1)OC12C(CC4CC1C(C)(C)OC2(CCC(C)C(=O)O)C4O)C3=O (centres undefined); inactive

## Input Please let me know the test result on file for Cc1cc(-n2c(=O)[nH]c(=O)n(C)c2=O)ccc1Oc1ccc(SC(F)(F)F)cc1 .
## Output active

====

experiment: chemical genetic growth profiling, strain panel (AID 1159580);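 also: tested at 20 µM; growth read once vehicle control cultures reached saturation at 30 °C; 1 = growth at the plate median or of vehicle wells; lower values mean less growth of the strain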; conditions: S. cerevisiae deletion strains, growth OD, locus YLR403W, strain SFP1
Screen size: about 5,500 compounds; about 2,000 (36%) were called active. Roughly 18% stayed inconclusive and do not appear here. Cut-off read from the data, not from the text of the source: active = normalized growth mostly below about 0.91 (no sharp cut-off); inconclusive = no clear call, values can overlap the other calls; inactive = mostly above about 0.92. Some of the results follow.
Outcomes you can answer with include only these: Yes = active, No = inactive

Solved entries:
Clc1ccc2c(c1)c1ccccc1n2CN1CCOCC1; Yes
Clc1cc(Cl)cc(-c2nc(SCc3ccc(Cl)cc3Cl)n[nH]2)c1; No
O=C(CSCc1csc2ccccc12)Nc1ccc(F)c(Cl)c1; No
O=S(=O)(NC(=S)Nc1ccc(Cl)c(Cl)c1)c1ccccc1; No
Fc1cccc(Cl)c1CSc1n[nH]c(-c2cc(C(F)(F)F)cc(C(F)(F)F)c2)n1; No

## Input Please let me know the test result on file for O=C(Nc1ccc(Cl)cc1)SCc1c(Cl)cccc1Cl .
## Output No

## Input Also S=C(Nc1ccc(Cl)cc1)SCc1c(Cl)cccc1Cl ?
## Output No

====

Listed next: entries and their corresponding normalized growth.
test: chemical genetic growth profiling, strain panel (AID 1159580);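 also: tested at 20 µM; growth read once vehicle control cultures reached saturation at 30 °C; 1 = growth at the plate median or of vehicle wells; lower values mean less growth of the strain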; details: S. cerevisiae deletion strains, growth OD, locus YBR231C, strain swc5, active compounds read low
In all, about 5,500 compounds went through this assay and about 2,000 (36%) were called active. Another 18% or so got no clear call; they are omitted. This is one part of the list.
No unit in the answer, only the number.

Reference set (5 entries):
C[C@@H]1CC[C@H]2[C@@H](C)C(=O)O[C@@H]3O[C@@]4(C)CC[C@@H]1[C@]32OO4; 0.713
O=c1ccc2ccc(O)cc2o1; 0.976
C#C[C@]1(OC(C)=O)CCC2C3CCC4=C/C(=N\O)CCC4C3CC[C@@]21CC (stereo partly drawn); 0.333
O=C(Nc1ccc(C(=O)O)c(O)c1)c1ccccc1; 0.972
Cc1cn([C@H]2C[C@H](N=[N+]=[N-])[C@@H](CO)O2)c(=O)[nH]c1=O; 1

## Input Give its normalized growth value. Item: CC(=O)O[C@@H]1CC[C@@]2(C)C(CC[C@]3(C)C2CC=C2C4CC(C)(C)CC[C@]4(C(=O)O)CC[C@]23C)C1(C)C (stereo partly drawn)
## Output 0.913

## Input Also CC1OC(=O)C(C(C)C)NC(=O)C(C(C)C)OC(=O)C(C(C)C)NC(=O)C(C)OC(=O)C(C(C)C)NC(=O)C(C(C)C)OC(=O)C(C(C)C)NC(=O)C(C)OC(=O)C(C(C)C)NC(=O)C(C(C)C)OC(=O)C(C(C)C)NC1=O (stereo not drawn) ?
## Output 0.286

## Input Also CC(C)CCCC1(C)C=Cc2c(O)c3c(c(CCC(C)C)c2O1)OC12C(CC4CC1C(C)(C)OC2(CCC(C)C(=O)O)C4O)C3=O (stereo not drawn) ?
## Output 0.997

## Input Also N#CC(O[C@@H]1O[C@H](CO[C@@H]2O[C@H](CO)[C@@H](O)[C@H](O)[C@H]2O)[C@@H](O)[C@H](O)[C@H]1O)c1ccccc1 (stereo partly drawn) ?
## Output 0.981

## Input Also C/C=C(/C)C(=O)OC1CCC2(C)C3CCC4C5(O)CC(O)C6(O)C(CN7CC(C)CCC7C6(C)O)C5(O)CC42OC13O (stereo not drawn) ?
## Output 0.991

## Input Also NC(N)=N/N=C/c1c(Cl)cccc1Cl ?
## Output 0.984

Cited source: PubChem BioAssay AID1159580
